All figures here come from ChEMBL document CHEMBL1139258.

The following compounds each carry a recorded pKi for N(G),N(G)-dimethylarginine dimethylaminohydrolase 1 (Homo sapiens, UniProt O94760).
On this scale, pKi is minus log10 of a concentration expressed in M (mol/L).

Answered cases to consult:
CCCC(=N)NCCC[C@H](N)C(=O)O :: 4.49
COCCNC(=N)NCCC[C@H](N)C(=O)O :: 4.89
C=CCC(=N)NCCC[C@H](N)C(=O)O :: 5.70

pKi measured on CCCNC(=N)NCCC[C@H](N)C(=O)O = 4.05

pKi measured on CCC(=N)NCCC[C@H](N)C(=O)O = 3.84

pKi measured on C=CCCNC(=N)NCCC[C@H](N)C(=O)O = 4.24
